- target or test system: COX-1 (Homo sapiens)
- Construct: host or cells: U-937 human lymphoma cells
- Sequence (P23219 24-599): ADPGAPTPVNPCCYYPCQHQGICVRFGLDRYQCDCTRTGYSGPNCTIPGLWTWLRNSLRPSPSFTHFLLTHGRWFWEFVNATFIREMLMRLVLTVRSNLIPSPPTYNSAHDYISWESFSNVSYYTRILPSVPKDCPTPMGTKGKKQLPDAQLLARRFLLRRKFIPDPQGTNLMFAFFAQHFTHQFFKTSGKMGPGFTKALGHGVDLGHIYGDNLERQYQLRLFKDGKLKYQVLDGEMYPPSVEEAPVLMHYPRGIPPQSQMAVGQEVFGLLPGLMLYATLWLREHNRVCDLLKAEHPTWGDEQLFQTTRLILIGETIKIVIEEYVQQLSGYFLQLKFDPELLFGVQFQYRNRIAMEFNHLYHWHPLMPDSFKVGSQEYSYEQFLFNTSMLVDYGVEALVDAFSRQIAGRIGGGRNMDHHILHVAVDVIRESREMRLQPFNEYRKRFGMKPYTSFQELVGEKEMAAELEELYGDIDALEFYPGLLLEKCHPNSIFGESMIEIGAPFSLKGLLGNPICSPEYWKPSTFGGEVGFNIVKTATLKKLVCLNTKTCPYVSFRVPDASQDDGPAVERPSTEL
- test method notes: Assay for the COX-1 inhibitory activity using U-937 (PGE2 inhibition)
- Type: cell-based
- assay conditions: 1 μM test compound; U-937 human lymphoma cells; PGE2 after arachidonic acid; read-out: Cyclooxygenase (COX) Inhibition (%) COX-1 (1 μM)
assay readout: inhibition at 1 µM (%)

>>> df
                  compound_structure_string       assay_readout  result_unit  observed_value
0  CC(C)Oc1nc(-c2ccccc2)n(-c2ccc(S(C)(=O)=O)cc2)n1  inhibition at 1 µM            %            23.4
1  N#CCOc1nc(-c2ccc(F)cc2)n(-c2ccc(S(N)(=O)=O)cc2)n1  inhibition at 1 µM            %            26.6
2  COc1ccc(-c2nc(OCC#N)nn2-c2ccc(S(N)(=O)=O)cc2)cc1  inhibition at 1 µM            %            27.7
3  CC(C)Oc1nc(-c2ccc(F)cc2)n(-c2ccc(S(N)(=O)=O)cc2)n1  inhibition at 1 µM            %            26.4
